# Test system: MRC-5: Human fetal lung fibroblasts
# METHOD_SUMMARY: Cytotoxicity on MRC-5 cells
# Assay type: cell-based
# STATED_CONDITIONS: MRC5
READOUT_LABEL: pIC50
Kindly note that pIC50 refers to -log10 of the concentration in mol/L and answer with the value alone.

>>> measured("CC(=O)OC(CC=C(C)C)/C(C)=C/C(O)C/C(C)=C/COc1ccc2ccc(=O)oc2c1 (stereo not shown)")
4.50

Q. Which value of pIC50 has been reported for CC(C)=CCC(O)/C(C)=C/C(O)C/C(C)=C/COc1ccc2ccc(=O)oc2c1 (stereo not shown) in the records?
A. 4.93

Q. Subsequent entry: "C/C(=C\COc1ccc2ccc(=O)oc2c1)CC/C=C(\C)CC[C@@H](O)C(C)(C)O"
A. 4.69

Q. Subsequent entry: "CC1=CC[C@@H]2C(C)(C)[C@H](O)CC[C@@]2(C)[C@@H]1COc1ccc2ccc(=O)oc2c1"
A. 5.10
